assayed system: I4_Ma (Mycolicibacterium aurum)
Construct: gene crtI; full length, codon optimized, C-terminal His6, E. coli BL21(DE3), TALON purified with FAD; species only as initials (Ma), read as Mycobacterium aurum
Sequence (Q9K566 entry or part of it): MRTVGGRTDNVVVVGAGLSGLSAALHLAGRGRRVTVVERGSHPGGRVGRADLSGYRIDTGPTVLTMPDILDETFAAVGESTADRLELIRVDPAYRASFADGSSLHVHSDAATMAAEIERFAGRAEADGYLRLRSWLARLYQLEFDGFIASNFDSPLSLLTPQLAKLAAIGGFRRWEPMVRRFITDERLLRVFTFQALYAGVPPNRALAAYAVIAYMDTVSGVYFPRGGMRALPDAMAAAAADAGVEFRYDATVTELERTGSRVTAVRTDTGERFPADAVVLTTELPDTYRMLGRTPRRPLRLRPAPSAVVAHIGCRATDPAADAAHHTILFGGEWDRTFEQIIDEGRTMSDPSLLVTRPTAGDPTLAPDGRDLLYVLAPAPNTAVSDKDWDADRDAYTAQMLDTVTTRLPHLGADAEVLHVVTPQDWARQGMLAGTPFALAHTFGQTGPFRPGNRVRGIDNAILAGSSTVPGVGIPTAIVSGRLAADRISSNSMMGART
method description: HPLC-UV time course, global Michaelis-Menten fit (COPASI)
Type: biochemical
conditions used: phytoene liposomes (soy lecithin), FAD, pH 8.0, 30 °C; Kd = kr/kf fitted with bounded rate constants
pKd: −log10 of the molar value.
readout: pKd

(a) CC(C)=CCC/C(C)=C/CC/C(C)=C/C=C/C(C)=C/C=C/C=C(C)/C=C/C=C(\C)CC/C=C(\C)CCC=C(C)C
(b) CC(C)=CCC/C(C)=C/CC/C(C)=C/CC/C(C)=C/C=C\C=C(/C)CC/C=C(\C)CC/C=C(\C)CCC=C(C)C
(c) CC(C)=CCC/C(C)=C/CC/C(C)=C/C=C/C(C)=C/C=C/C=C(\C)CC/C=C(\C)CC/C=C(\C)CCC=C(C)C
Ask: Please produce an ascending ranking of these compounds based on pKd. Note for the reader: the ranking is given by listing the labels in the order requested.
Reply: b, a, c

* * *

assayed system: I4_Bt (CrtI from Blakeslea trispora) (Blakeslea trispora)
Sequence (Q67GI0 1-582): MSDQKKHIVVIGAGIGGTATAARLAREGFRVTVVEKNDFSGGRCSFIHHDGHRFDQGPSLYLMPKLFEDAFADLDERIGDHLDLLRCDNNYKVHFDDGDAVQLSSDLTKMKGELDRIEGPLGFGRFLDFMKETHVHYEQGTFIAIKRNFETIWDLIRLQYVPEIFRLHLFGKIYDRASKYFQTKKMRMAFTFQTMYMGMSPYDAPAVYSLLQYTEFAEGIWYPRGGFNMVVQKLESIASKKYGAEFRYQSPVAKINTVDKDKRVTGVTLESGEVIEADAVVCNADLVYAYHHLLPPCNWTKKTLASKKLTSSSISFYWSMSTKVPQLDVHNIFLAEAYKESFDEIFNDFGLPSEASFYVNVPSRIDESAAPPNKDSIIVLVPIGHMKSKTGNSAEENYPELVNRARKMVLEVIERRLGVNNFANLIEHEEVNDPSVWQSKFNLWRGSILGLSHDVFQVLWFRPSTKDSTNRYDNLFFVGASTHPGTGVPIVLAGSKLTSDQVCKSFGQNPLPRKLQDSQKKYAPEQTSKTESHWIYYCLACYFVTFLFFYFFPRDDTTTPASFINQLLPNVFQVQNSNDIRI
readout: Kd (µM)

Take a look at these entries with their results.
Ask: Please look up its Kd: CC(C)=CCC/C(C)=C/CC/C(C)=C/C=C/C(C)=C/C=C/C=C(\C)CC/C=C(\C)CC/C=C(\C)CCC=C(C)C [phytofluene]
Reply: 4.7

Ask: Please look up its Kd: CC(C)=CCC/C(C)=C/CC/C(C)=C/C=C/C(C)=C/C=C/C=C(C)/C=C/C=C(\C)CC/C=C(\C)CCC=C(C)C [ζ-carotene]
Reply: 2.5

(A) CC(C)=CCC/C(C)=C/CC/C(C)=C/CC/C(C)=C/C=C\C=C(/C)CC/C=C(\C)CC/C=C(\C)CCC=C(C)C [phytoene]
(B) CC(C)=CCC/C(C)=C/C=C/C(C)=C/C=C/C(C)=C/C=C/C=C(C)/C=C/C=C(\C)CC/C=C(\C)CCC=C(C)C [neurosporene]
Ask: Pick one, A or B : lowest reported Kd. Your answer should be the label attached to the chosen record.
Reply: B
